- Tested on: COLO 205 colon
- Assay text: NCI tumour cell line growth inhibition, 48 h; in the data active means GI50 below about 0.43 µM; inactive means the rest
Residues, ends and D or L forms follow the SMILES beside them. *: point of attachment. Boc = CC(C)(C)OC(=O)*
Write down the outcome that applies. Available outcomes: active, inactive

In this assay, the call recorded for `CCOc1nc(-c2ccccc2)cc2c(O)c(C(=O)N/N=C/c3ccc(O)cc3O)[nH]c(=O)c12` was what?
inactive

In this assay, the call recorded for `ClCc1ccc(-c2ccc(Cn3cnc4nc(Cl)nc(Cl)c43)cc2)cc1` was what?
inactive

In this assay, the call recorded for COC(=O)CNC(=O)C(Cc1ccccc1)NC(=O)C(Cc1ccccc1)NC(=O)OC(C)(C)C (stereo not drawn) (Boc-Phe-Phe-Gly-OMe; configuration not given here) was what?
inactive

In this assay, the call recorded for `CC(=O)[CH-]C(C)=O.CC(=O)[CH-]C(C)=O.CC(=O)[CH-]C(C)=O.[In+3]` was what?
inactive

In this assay, the call recorded for `O=C(/C=C/c1ccc(Cl)cc1)/C=C/c1cc2ccccc2[nH]c1=O` was what?
inactive

In this assay, the call recorded for `CN1CCc2c(c3ccccc3c3ccccc23)C1` was what?
inactive

In this assay, the call recorded for `CCN1CCN(c2cc(C)nc(N(CCNc3ccnc4cc(Cl)ccc34)Cc3ccc4c(c3)OCO4)n2)CC1` was what?
inactive

In this assay, the call recorded for `N=C(N)N=Nc1ccc(NN=C(N)N)c2c1ncc1c2nc2sccn21` was what?
inactive

In this assay, the call recorded for `O=c1c2cc(F)ccc2sc2c(N3CCNCC3)nc3ccccc3c12` was what?
inactive

In this assay, the call recorded for `FC(F)(F)c1nnn[n-]1.[Au+].c1ccc([PH+](c2ccccc2)c2ccccc2)cc1` was what?
inactive

In this assay, the call recorded for `O=C(NCc1ccc(Cl)cc1Cl)c1ccc(NC2=C(Cl)C(=O)N(Cc3ccccc3)C2=O)cc1` was what?
inactive

In this assay, the call recorded for `O=C1C=CC(=O)N1C1CCCCCCCCCCC1` was what?
inactive

In this assay, the call recorded for C[C@@H]1C[N+]2([O-])[C@H]3C4=CCC[C@@H]4CC[C@H]3[C@@]3(C)OC(=O)CC[C@]34CC[C@H]1[C@@H]42 (stereo not given in full) was what?
inactive

In this assay, the call recorded for `COc1cc2ncn(-c3cc(O[C@H](C)c4ccccc4Cl)c(C(N)=O)s3)c2cc1OC` was what?
active

In this assay, the call recorded for `Fc1cnc(NC2CC2)nc1-c1cnc2ccc(N3CCOCC3)cn12` was what?
active
